These measurements were taken from ChEMBL document CHEMBL5244279.

Recorded measurements of EC50, one per entry
system: SARS-CoV-2; format: functional, organism-based, Vero E6; conditions: Severe acute respiratory syndrome coronavirus 2, strain 107, Vero C1008
readoutType: EC50 (nM)

# smilesData, readoutType, unitAbbreviation, observedValue
measured = [
    ("O=C[C@H](C[C@@H]1CCNC1=O)NC(=O)[C@@H]1[C@H]2CCC[C@H]2CN1C(=O)CCc1cccc(F)c1", "EC50", "nM", 2970),
    ("O=C[C@H](C[C@@H]1CCNC1=O)NC(=O)[C@@H]1[C@H]2CCC[C@H]2CN1C(=O)CCc1cc(F)cc(F)c1", "EC50", "nM", 5630),
    ("CC1(C)[C@@H]2[C@@H](C(=O)N[C@H](C=O)C[C@@H]3CCNC3=O)N(C(=O)COc3ccc(F)c(F)c3)C[C@@H]21", "EC50", "nM", 5570),
    ("CC1(C)[C@@H]2[C@@H](C(=O)N[C@H](C=O)C[C@@H]3CCNC3=O)N(C(=O)COc3ccc(OC(F)(F)F)cc3)C[C@@H]21", "EC50", "nM", 860),
    ("COc1ccc(OCC(=O)N2C[C@H]3[C@@H]([C@H]2C(=O)N[C@H](C=O)C[C@@H]2CCNC2=O)C3(C)C)cc1F", "EC50", "nM", 4680),
    ("O=C[C@H](C[C@@H]1CCNC1=O)NC(=O)[C@@H]1[C@H]2CCC[C@H]2CN1C(=O)COc1ccc(Cl)cc1", "EC50", "nM", 670),
    ("CC1(C)[C@@H]2[C@@H](C(=O)N[C@H](C=O)C[C@@H]3CCNC3=O)N(C(=O)COc3ccc(Br)cc3Cl)C[C@@H]21", "EC50", "nM", 1180),
]

* * *

test system: SARS-CoV-2; assay type: functional, organism-based, Vero E6; settings: Severe acute respiratory syndrome coronavirus 2, strain 107, Vero C1008
pEC50: −log10 of the molar value.
Recorded measurements of pEC50, one per entry
readoutType: pEC50

# smilesData, observedValue
records = [
    ("Cc1cc(Cl)ccc1OCC(=O)N1C[C@@H]2CCC[C@@H]2[C@H]1C(=O)N[C@H](C=O)C[C@@H]1CCNC1=O", 5.82),
    ("CC1(C)[C@@H]2[C@@H](C(=O)N[C@H](C=O)C[C@@H]3CCNC3=O)N(C(=O)COc3cccc(C(F)(F)F)c3)C[C@@H]21", 4.77),
    ("CC1(C)[C@@H]2[C@@H](C(=O)N[C@H](C=O)C[C@@H]3CCNC3=O)N(C(=O)COc3cc(F)cc(F)c3)C[C@@H]21", 5.79),
    ("O=C[C@H](C[C@@H]1CCNC1=O)NC(=O)[C@@H]1[C@H]2CCC[C@H]2CN1C(=O)CCc1ccc(F)c(F)c1", 4.52),
    ("O=C[C@H](C[C@@H]1CCNC1=O)NC(=O)[C@@H]1[C@H]2CCC[C@H]2CN1C(=O)COc1ccc(Cl)cc1F", 5.78),
    ("CC1(C)[C@@H]2[C@@H](C(=O)N[C@H](C=O)C[C@@H]3CCNC3=O)N(C(=O)CCc3cccc(F)c3)C[C@@H]21", 5.65),
    ("CC1(C)[C@@H]2[C@@H](C(=O)N[C@H](C=O)C[C@@H]3CCNC3=O)N(C(=O)COc3ccc(Cl)cc3)C[C@@H]21", 6.28),
    ("CC1(C)[C@@H]2[C@@H](C(=O)N[C@H](C=O)C[C@@H]3CCNC3=O)N(C(=O)COc3ccc(Cl)cc3Cl)C[C@@H]21", 6.18),
    ("O=C[C@H](C[C@@H]1CCNC1=O)NC(=O)[C@@H]1[C@H]2CCC[C@H]2CN1C(=O)COc1ccc(Cl)c(Cl)c1", 6.08),
    ("COc1ccc(OCC(=O)N2C[C@H]3[C@@H]([C@H]2C(=O)N[C@H](C=O)C[C@@H]2CCNC2=O)C3(C)C)cc1OC", 5.76),
    ("CC1(C)[C@@H]2[C@@H](C(=O)N[C@H](C=O)C[C@@H]3CCNC3=O)N(C(=O)COc3ccc(Cl)c(Cl)c3)C[C@@H]21", 5.68),
    ("COc1ccc(OCC(=O)N2C[C@@H]3CCC[C@@H]3[C@H]2C(=O)N[C@H](C=O)C[C@@H]2CCNC2=O)cc1", 4.61),
]

* * *

test: Oral bioavailability in Sprague-Dawley rat; type: ADME, organism-based; settings: in vivo
Recorded measurements of bioavailability, one per entry

# smilesData, bioavailability / %
measured = [
    ("CC1(C)[C@@H]2[C@@H](C(=O)N[C@H](C=O)C[C@@H]3CCNC3=O)N(C(=O)COc3ccc(OC(F)(F)F)cc3)C[C@@H]21", 14.6),
    ("O=C[C@H](C[C@@H]1CCNC1=O)NC(=O)[C@@H]1[C@H]2CCC[C@H]2CN1C(=O)COc1ccc(Cl)cc1Cl", 11.2),
]

* * *

experiment: Cytotoxicity against human Huh-7 cells assessed as reduction of cell viability; format: toxicity, cell-based

# compound, CC50
data = [
    ("CC(C)C[C@H](NC(=O)OCC1CCC(F)(F)CC1)C(=O)N[C@H](C=O)C[C@@H]1CCNC1=O", "> 100 µM"),
    ("CCCC1CCC(OC(=O)N[C@@H](CC(C)C)C(=O)N[C@H](C=O)C[C@@H]2CCNC2=O)CC1 (stereo partly specified)", "> 100 µM"),
    ("CC(C)C[C@H](NC(=O)OC1CCC(F)(F)CC1)C(=O)N[C@H](C=O)C[C@@H]1CCNC1=O", "> 100 µM"),
    ("CCCCC1CCC(OC(=O)N[C@@H](CC(C)C)C(=O)N[C@H](C=O)C[C@@H]2CCNC2=O)CC1 (stereo partly specified)", "63.3 µM"),
    ("CCCCC1CCC(OC(=O)N[C@@H](CC(C)C)C(=O)N[C@@H](C[C@@H]2CCNC2=O)C(O)S(=O)(=O)O)CC1 (stereo partly specified)", "59.1 µM"),
    ("O=C[C@H](C[C@@H]1CCNC1=O)NC(=O)[C@H](CC1CCCCC1)NC(=O)c1cc2ccccc2[nH]1", "> 100 µM"),
]

* * *

assay: Cytotoxicity against mouse L929 cells assessed as reduction of cell viability; format: toxicity, cell-based
Recorded measurements of CC50, one per entry
readoutType: CC50

# compound, readoutType, observedValue
data = [
    ("CC(C)C[C@H](NC(=O)OC1CCCCC1)C(=O)N[C@H](C=O)C[C@@H]1CCNC1=O", "CC50", "> 100 µM"),
    ("CC(C)C[C@H](NC(=O)OCc1ccccc1)C(=O)N[C@H](C=O)C[C@@H]1CCNC1=O", "CC50", "> 100 µM"),
    ("CC(C)C[C@H](NC(=O)OCc1ccccc1)C(=O)N[C@@H](C[C@@H]1CCNC1=O)C(O)S(=O)(=O)O (some centres undefined)", "CC50", "> 200 µM"),
    ("CC(C)C[C@H](NC(=O)OC1CCC(F)(F)CC1)C(=O)N[C@H](C=O)C[C@@H]1CCNC1=O", "CC50", "> 100 µM"),
]

* * *

Recorded measurements of CC50, one per entry
experiment: Cytotoxicity against cat CRFK cells assessed as reduction of cell viability; assay type: toxicity, cell-based, Felis catus
readoutType: CC50

# molecule, observedValue
data = [
    ("CC(C)C[C@H](NC(=O)OC1CCCCC1)C(=O)N[C@@H](C[C@@H]1CCNC1=O)C(O)S(=O)(=O)O (stereo not given in full)", "> 100 µM"),
    ("CC(C)C[C@H](NC(=O)OCC1CCC(F)(F)CC1)C(=O)N[C@H](C=O)C[C@@H]1CCNC1=O", "> 100 µM"),
    ("O=C[C@H](C[C@@H]1CCNC1=O)NC(=O)[C@H](Cc1cccc(F)c1)NC(=O)c1cc2ccccc2[nH]1", "> 100 µM"),
    ("CC(C)C[C@H](NC(=O)OC1CCC(F)(F)CC1)C(=O)N[C@H](C=O)C[C@@H]1CCNC1=O", "> 100 µM"),
    ("CCCC1CCC(OC(=O)N[C@@H](CC(C)C)C(=O)N[C@@H](C[C@@H]2CCNC2=O)C(O)S(=O)(=O)O)CC1 (stereo not given in full)", "> 100 µM"),
]

* * *

test: Binding affinity to SARS CoV N-terminal his-tagged Main protease using Dabcyl-KTSAVLQSGFRKME-Edan peptide as substrate by fluorescence based analysis; set-up: species or system Severe acute respiratory syndrome-related coronavirus

# smilesData, unitAbbreviation, Ki
measured = [
    ("O=C(On1nnc2ccccc21)c1cc2cc(F)ccc2[nH]1", "nM", 13.8),
    ("O=C(On1nnc2ccccc21)c1ccc2[nH]cnc2c1", "nM", 22.9),
    ("O=C(On1nnc2ccccc21)c1ccc2[nH]ccc2c1", "nM", 7.5),
    ("CNc1ccc(C(=O)On2nnc3ccccc32)cc1", "nM", 12.1),
]
